Molecular target: Calpain-2 catalytic subunit (Sus scrofa)
Sequence (P43367 whole entry): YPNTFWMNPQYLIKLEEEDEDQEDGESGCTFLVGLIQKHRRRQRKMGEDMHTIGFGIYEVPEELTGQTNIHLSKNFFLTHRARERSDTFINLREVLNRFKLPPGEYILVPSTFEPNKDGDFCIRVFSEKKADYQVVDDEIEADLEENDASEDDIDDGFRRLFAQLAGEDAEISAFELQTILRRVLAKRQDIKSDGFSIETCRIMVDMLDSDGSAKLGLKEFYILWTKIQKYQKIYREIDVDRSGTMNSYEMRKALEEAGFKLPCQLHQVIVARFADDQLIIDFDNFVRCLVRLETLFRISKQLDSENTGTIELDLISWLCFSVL
Assay: pig calpain II inhibitor potency, dose response, biochemical, fluorogenic peptide substrate (AID 1420)
Format: functional

# molecule, IC50
records = [
    ("O=C(Nc1cnn(Cc2ccc(F)cc2)c1)c1cc2nc(-c3ccco3)cc(C(F)(F)F)n2n1", "0.777 µM (not active)"),
    ("CCOC(=O)c1ccc(NC(=O)C2CC(=O)Nc3nc4ccccc4n32)cc1 (stereo unspecified)", "> 50 µM (not active)"),
    ("O=C(NCc1cccs1)c1cccc(Nc2nc3cc(Br)ccc3[nH]2)c1", "11.1 µM (not active)"),
    ("Cc1ccc(SC[C@H](Cc2ccccc2)N2CCN(CCc3ccccc3)CCC2=O)cc1", "5.01 µM (not active)"),
    ("CCOc1ccc(NC(S)=NNC(=O)c2ccc(Br)cc2)cc1", "> 50 µM (not active)"),
    ("COc1cc(OC)cc(C(=O)NCCN2CCOCC2)c1", "48.3 µM (not active)"),
]
